molecular target: Dimer of Gag-Pol polyprotein [489-587,M535I,L552P,A560V,V571F,I573V] (Human immunodeficiency virus 1, UniProt P04585, A560V/I573V/L552P/M535I/V571F); construct: 489-587; assay: Fluorometric Activity Assay; settings: pH 5.5; 30 °C
Would you mind telling me the reported pKi of each entry?
Schema: pKi number; meaning minus log10 of the concentration expressed in molar units.

Per the records, this compound ( CNC(=O)OCCCC(C)(C)CN(C[C@@H](O)[C@H](Cc1ccccc1)NC(=O)O[C@H]1CO[C@H]2OCC[C@H]21)S(=O)(=O)c1ccc2c(c1)OCO2 ) has pKi equal to 10.60

Per the records, this compound ( CCOC(=O)NCCCCC(C)(C)CN(C[C@@H](O)[C@H](Cc1ccccc1)NC(=O)O[C@H]1CO[C@H]2OCC[C@H]21)S(=O)(=O)c1ccc2c(c1)OCO2 ) has pKi equal to 11.37

---

Would you mind telling me the reported pKi of each entry?
biological target: Dimer of Gag-Pol polyprotein [489-587,L499I,L508Q,K509R,E524D,M525I,S526N,M535I,I539V,I543V,I551V,L552P,A560V,V571A,L579M] (Human immunodeficiency virus 1, UniProt P04585, A560V/E524D/I539V/I543V/I551V/K509R/L499I/L508Q/L552P/L579M/M525I/M535I/S526N/V571A); construct: 489-587; experiment: Fluorometric Activity Assay; conditions: pH 5.5; 30 °C
Schema: pKi number; meaning minus log10 of the concentration expressed in molar units.

Per the records, this compound ( CCOC(=O)NCCCCC(C)(C)CN(C[C@@H](O)[C@H](Cc1ccccc1)NC(=O)O[C@H]1CO[C@H]2OCC[C@H]21)S(=O)(=O)c1ccc2c(c1)OCO2 ) has pKi equal to 11.92

Per the records, this compound ( CC(C)CN(C[C@@H](O)[C@H](Cc1ccc(OCc2ccccn2)cc1)NC(=O)O[C@H]1CO[C@H]2OCC[C@H]21)S(=O)(=O)c1ccc2c(c1)OCO2 ) has pKi equal to 11.77

Per the records, this compound ( CC(C)CN(C[C@@H](O)[C@H](Cc1ccc(OCCc2cccs2)cc1)NC(=O)O[C@H]1CO[C@H]2OCC[C@H]21)S(=O)(=O)c1ccc2c(c1)OCO2 ) has pKi equal to 11.62

Per the records, this compound ( CNC(=O)OCCCC(C)(C)CN(C[C@@H](O)[C@H](Cc1ccccc1)NC(=O)O[C@H]1CO[C@H]2OCC[C@H]21)S(=O)(=O)c1ccc2c(c1)OCO2 ) has pKi equal to 10.26

---

target: Dimer of Gag-Pol polyprotein [489-587,I539V] (Human immunodeficiency virus 1, UniProt P04585, I539V); construct: 489-587; experiment: Kinetic Competitive Displacement Assay; details: pH 5.5; 30 °C
Assay Endpoint: Ki (pM)
Report the value in pM with no unit label.

Per the records, this molecule ( CC(C)CN(C[C@@H](O)[C@H](Cc1ccc(OCc2ccccn2)cc1)NC(=O)O[C@H]1CO[C@H]2OCC[C@H]21)S(=O)(=O)c1ccc2c(c1)OCO2 ) has Ki equal to 2.6

Per the records, this molecule ( CC(C)CN(C[C@@H](O)[C@H](Cc1ccc(OCCc2cccs2)cc1)NC(=O)O[C@H]1CO[C@H]2OCC[C@H]21)S(=O)(=O)c1ccc2c(c1)OCO2 ) has Ki equal to 3.9

Per the records, this molecule ( CCOC(=O)NCCCCC(C)(C)CN(C[C@@H](O)[C@H](Cc1ccccc1)NC(=O)O[C@H]1CO[C@H]2OCC[C@H]21)S(=O)(=O)c1ccc2c(c1)OCO2 ) has Ki equal to 4.6

Per the records, this molecule ( CNC(=O)OCCCC(C)(C)CN(C[C@@H](O)[C@H](Cc1ccccc1)NC(=O)O[C@H]1CO[C@H]2OCC[C@H]21)S(=O)(=O)c1ccc2c(c1)OCO2 ) has Ki equal to 27
